# SYSTEM_UNDER_TEST: Luciferin 4-monooxygenase (Photinus pyralis) (UniProt P08659)
# Sequence (P08659 whole entry): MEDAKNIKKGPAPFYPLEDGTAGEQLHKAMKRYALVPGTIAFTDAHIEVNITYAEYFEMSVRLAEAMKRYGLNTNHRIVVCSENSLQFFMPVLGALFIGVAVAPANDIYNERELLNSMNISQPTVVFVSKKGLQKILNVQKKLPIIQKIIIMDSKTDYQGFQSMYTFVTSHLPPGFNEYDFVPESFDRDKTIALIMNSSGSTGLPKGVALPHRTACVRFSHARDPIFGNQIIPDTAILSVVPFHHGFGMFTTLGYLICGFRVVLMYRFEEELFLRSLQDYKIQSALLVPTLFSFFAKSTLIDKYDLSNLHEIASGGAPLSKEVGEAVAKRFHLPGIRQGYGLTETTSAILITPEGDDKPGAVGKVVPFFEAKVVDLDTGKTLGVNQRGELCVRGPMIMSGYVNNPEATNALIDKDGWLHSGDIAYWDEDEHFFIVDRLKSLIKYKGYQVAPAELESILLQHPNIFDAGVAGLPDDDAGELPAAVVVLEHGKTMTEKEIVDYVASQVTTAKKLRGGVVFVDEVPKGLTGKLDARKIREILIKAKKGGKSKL
# TEST_PROTOCOL: Inhibition of recombinant firefly luciferase at 1 nM after 20 mins by luminescence assay
Please go through the items and note down their inhibition.
Lab book: enter the figure in %, no units written.

Input: Any idea what its inhibition is? The compound is COc1ccc(CC2CC(c3ccc(Cl)cc3)=NO2)cc1OC (racemic)
Output: 0.9

Input: Any idea what its inhibition is? The compound is "COc1ccccc1C1=NO[C@@H](Cc2ccccc2)O1"
Output: 5

Input: Any idea what its inhibition is? The compound is "Fc1cccc(C2=NO[C@H](Cc3ccccc3)C2)c1"
Output: 61.6

Input: Any idea what its inhibition is? The compound is Clc1ccccc1C1=NOC(Cc2ccccc2)O1 (racemic)
Output: 68.5

Input: Any idea what its inhibition is? The compound is "CCc1ccc(C[C@H]2CC(c3ccc(Cl)cc3)=NO2)cc1"
Output: 2.5

Input: Any idea what its inhibition is? The compound is "Fc1ccc(C2=NO[C@@H](Cc3ccccc3)C2)cc1"
Output: 7.7

Input: Any idea what its inhibition is? The compound is "CC(C)c1ccc(C[C@@H]2CC(c3ccc(Cl)cc3)=NO2)cc1"
Output: 0.4

Input: Any idea what its inhibition is? The compound is "COc1cccc(C2=NO[C@H](Cc3ccccc3)C2)c1"
Output: 65.9

Input: Any idea what its inhibition is? The compound is "COc1ccc(C[C@H]2CC(c3ccc(OC)cc3)=NO2)cc1"
Output: 3.3

Input: Any idea what its inhibition is? The compound is "c1ccc(C[C@@H]2CC(c3cccc4ccccc34)=NO2)cc1"
Output: 3

Input: Any idea what its inhibition is? The compound is "Fc1ccccc1C1=NO[C@H](Cc2ccccc2)C1"
Output: 57.9

Input: Any idea what its inhibition is? The compound is "Fc1ccc(C[C@@H]2CC(c3ccc(Cl)cc3)=NO2)cc1"
Output: 53

Input: Any idea what its inhibition is? The compound is "Oc1ccccc1C1=NO[C@@H](Cc2ccccc2)C1"
Output: 8.9

Input: Any idea what its inhibition is? The compound is "COc1cccc(C2=NO[C@@H](Cc3ccccc3)C2)c1"
Output: 9.6

Input: Any idea what its inhibition is? The compound is COc1ccccc1CC1CC(c2ccc(Cl)cc2)=NO1 (racemic)
Output: 29.8

Input: Any idea what its inhibition is? The compound is "CCc1ccc(C[C@@H]2CC(c3ccc(Cl)cc3)=NO2)cc1"
Output: 6.3

Input: Any idea what its inhibition is? The compound is "c1ccc(C[C@@H]2CC(c3ccccc3)=NO2)cc1"
Output: 47.1

Input: Any idea what its inhibition is? The compound is "N#Cc1ccc(C2=NO[C@@H](Cc3ccccc3)C2)cc1"
Output: 14.7

Input: Any idea what its inhibition is? The compound is "COc1ccc(C2=NO[C@@H](Cc3ccccc3)C2)cc1"
Output: 6.4

Input: Any idea what its inhibition is? The compound is "COc1ccc(C2=NO[C@@H](CCc3ccccc3)C2)cc1"
Output: 2.5

Input: Any idea what its inhibition is? The compound is "c1ccc(C[C@H]2CC(c3ccc4ccccc4c3)=NO2)cc1"
Output: 4.9

Input: Any idea what its inhibition is? The compound is Clc1ccccc1C1=NOC(Cc2ccccc2)C1 (racemic)
Output: 50.7

Input: Any idea what its inhibition is? The compound is "Clc1ccc(C2=NO[C@@H](Cc3ccccc3)C2)cc1"
Output: 17.7

Input: Any idea what its inhibition is? The compound is "Oc1cccc(C2=NO[C@@H](Cc3ccccc3)C2)c1"
Output: 6.7

Input: Any idea what its inhibition is? The compound is O=[N+]([O-])c1ccc(C2=NOC(Cc3ccccc3)C2)cc1 (racemic)
Output: 63.9

Input: Any idea what its inhibition is? The compound is "Fc1ccc(C[C@H]2CC(c3ccc(Cl)cc3)=NO2)cc1"
Output: 1.4

Input: Any idea what its inhibition is? The compound is "COc1cccc(C[C@H]2CC(c3ccc(Cl)cc3)=NO2)c1"
Output: 1.1

Input: Any idea what its inhibition is? The compound is "COc1ccc(C2=NO[C@H](Cc3ccc(F)cc3)C2)cc1"
Output: 26.7

Input: Any idea what its inhibition is? The compound is "COc1ccc(C2=NO[C@H](Cc3ccccc3OC)C2)cc1"
Output: 46.5

Input: Any idea what its inhibition is? The compound is CC1(Cc2ccccc2)CC(c2ccc(Cl)cc2)=NO1 (racemic)
Output: 28.7

Input: Any idea what its inhibition is? The compound is "c1ccc(C[C@H]2CC(c3cccc4ccccc34)=NO2)cc1"
Output: 5.5

Input: Any idea what its inhibition is? The compound is "COc1ccccc1C1=NO[C@H](Cc2ccccc2)O1"
Output: 48.3

Input: Any idea what its inhibition is? The compound is "Clc1ccc(C2=NO[C@@H](Cc3cccc4ccccc34)C2)cc1"
Output: 1.9

Input: Any idea what its inhibition is? The compound is Fc1ccccc1C1=NOC(Cc2ccccc2)O1 (racemic)
Output: 38.8

Input: Any idea what its inhibition is? The compound is "Oc1cccc(C2=NO[C@H](Cc3ccccc3)C2)c1"
Output: 47

Input: Any idea what its inhibition is? The compound is COc1ccc(C2=NOC(C)(Cc3ccccc3)C2)cc1 (racemic)
Output: 20.3

Input: Any idea what its inhibition is? The compound is "Oc1ccc(C2=NO[C@@H](Cc3ccccc3)C2)cc1"
Output: 5.3

Input: Any idea what its inhibition is? The compound is "COc1ccc(C2=NO[C@H](Cc3ccccc3)C2)cc1"
Output: 70.9

Input: Any idea what its inhibition is? The compound is "COc1ccc(C[C@@H]2CC(c3ccc(Cl)cc3)=NO2)cc1"
Output: 3.8

Input: Any idea what its inhibition is? The compound is "Oc1ccc(/C=C/c2cc(O)cc(O)c2)cc1"
Output: 6.8

Input: Any idea what its inhibition is? The compound is "COc1ccc(C2=NO[C@@H](Cc3ccccc3OC)C2)cc1"
Output: 6.1

Input: Any idea what its inhibition is? The compound is "Fc1cccc(C2=NO[C@@H](Cc3ccccc3)C2)c1"
Output: -3.7

Input: Any idea what its inhibition is? The compound is "N#Cc1ccc(C2=NO[C@H](Cc3ccccc3)C2)cc1"
Output: 53.6

Input: Any idea what its inhibition is? The compound is "Fc1ccccc1C1=NO[C@@H](Cc2ccccc2)C1"
Output: 11.3

Input: Any idea what its inhibition is? The compound is "COc1ccc(C2=NO[C@H](CCc3ccccc3)C2)cc1"
Output: 30.5

Input: Any idea what its inhibition is? The compound is "COc1ccc(C[C@H]2CC(c3ccc(Cl)cc3)=NO2)cc1"
Output: 1

Input: Any idea what its inhibition is? The compound is "Clc1ccc(C2=NO[C@H](Cc3ccccc3)C2)cc1"
Output: 72.8

Input: Any idea what its inhibition is? The compound is "COc1ccc(C2=NO[C@@H](Cc3ccc(F)cc3)C2)cc1"
Output: -1.9
